These measurements were taken from paper PMC9482650.

Target: T1, SNTG1, Q9NSN8
T1 sequence (Q9NSN8 52-150, limits assumed, looked up): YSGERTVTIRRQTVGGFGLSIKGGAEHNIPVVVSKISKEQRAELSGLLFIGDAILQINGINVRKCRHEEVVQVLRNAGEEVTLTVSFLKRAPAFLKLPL
Test: holdup assay
Parameters: key: below the threshold = too weak to quantify, mostly under pKd 3.1 to 4
Conditions: plain residues with an end cap or a label only (N-terminal biotin on a linker: ado-ado)
measurement_name: pKd

> print(dat)
                         binder  measurement.name       endpoint.value
1  LKDDELKTKL [SLCO1A2, P46721]               pKd  below the threshold
2    REEPDHSTEV [CCRL2, O00421]               pKd                 4.36
3     DFLSTFHIRI [CIB2, O75838]               pKd  below the threshold
4  ARESQKVSHV [FAM110B, Q8TC76]               pKd                 4.34
5    AQRARSPSDV [GPR12, P47775]               pKd  below the threshold
6    MHIQEKGFHV [EPHA6, Q9UF33]               pKd  below the threshold
7     TRKRSGEAAV [PFKM, P08237]               pKd  below the threshold
8   TGLWKHETTV [ADGRA3, Q8IWK6]               pKd                 4.46
